# System tested: Melanocortin receptor 3 (Homo sapiens)
# Sequence (P41968 whole entry): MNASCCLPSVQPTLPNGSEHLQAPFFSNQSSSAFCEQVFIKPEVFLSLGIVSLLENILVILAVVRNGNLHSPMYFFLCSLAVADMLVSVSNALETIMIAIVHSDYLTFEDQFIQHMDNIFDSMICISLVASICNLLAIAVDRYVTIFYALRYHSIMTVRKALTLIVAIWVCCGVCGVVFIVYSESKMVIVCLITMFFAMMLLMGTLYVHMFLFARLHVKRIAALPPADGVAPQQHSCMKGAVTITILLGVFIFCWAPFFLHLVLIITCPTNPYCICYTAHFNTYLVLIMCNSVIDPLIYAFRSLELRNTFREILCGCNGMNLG
# Protocol: Agonist activity at human MC3R transfected in HEK293 cells
Recorded EC50 for the following molecules
Number plus unit, in that order.

# count of solved cases: 5
[
  {
    "Smiles representation": "N=C(N)NCCC[C@H]1C[C@@H](OCc2ccc3ccccc3c2)CN1C(=O)[C@@H](Cc1ccccc1)NC(=O)[C@@H]1Cc2ccccc2CN1",
    "System tested": "Melanocortin receptor 3 (Homo sapiens)",
    "EC50": "232 nM"
  },
  {
    "Smiles representation": "CC(=O)N[C@@H](Cc1ccc(O)cc1)C(=O)N[C@H](Cc1ccccc1)C(=O)N1C[C@H](OCc2ccc3ccccc3c2)C[C@@H]1CCCN=C(N)N",
    "System tested": "Melanocortin receptor 3 (Homo sapiens)",
    "EC50": "85 nM"
  },
  {
    "Smiles representation": "CC(=O)N[C@H](Cc1ccccc1)C(=O)N1C[C@H](OCc2ccc3ccccc3c2)C[C@@H]1CCCN=C(N)N",
    "System tested": "Melanocortin receptor 3 (Homo sapiens)",
    "EC50": "1380 nM"
  },
  {
    "Smiles representation": "NC(N)=NCCC[C@H]1C[C@@H](OCc2ccc3ccccc3c2)CN1C(=O)[C@@H](Cc1ccccc1)NC(=O)[C@@H]1CCCN1",
    "System tested": "Melanocortin receptor 3 (Homo sapiens)",
    "EC50": "593 nM"
  },
  {
    "Smiles representation": "NC(N)=NCCNC(=O)[C@H]1C[C@@H](OCc2ccc3ccccc3c2)CN1C(=O)[C@@H](Cc1ccccc1)NC(=O)[C@@H](N)Cc1c[nH]cn1",
    "System tested": "Melanocortin receptor 3 (Homo sapiens)",
    "EC50": "266 nM"
  }
]

Q: Tell me reported EC50 for `CC(=O)N[C@@H](Cc1cnc[nH]1)C(=O)N[C@H](Cc1ccccc1)C(=O)N1C[C@H](OCc2ccc3ccccc3c2)C[C@@H]1C(=O)NCCN=C(N)N` , tested with Melanocortin receptor 3 (Homo sapiens).
A: 340 nM

Q: Input `NC(N)=NCCC[C@H]1C[C@@H](OCc2ccc3ccccc3c2)CN1C(=O)[C@@H](Cc1ccccc1)NC(=O)[C@@H]1CCCCN1`
A: 260 nM

Q: Input `N=C(N)NCCC[C@H]1C[C@H](OCc2ccc3ccccc3c2)CN1C(=O)[C@@H](Cc1ccccc1)NC(=O)[C@@H]1Cc2ccccc2CN1`
A: 214 nM

Q: Input `N=C(N)NCCNC(=O)[C@H]1C[C@@H](OCc2ccc3ccccc3c2)CN1C(=O)[C@@H](Cc1ccccc1)NC(=O)[C@@H]1CCCCN1`
A: 1770 nM

Q: Input `N=C(N)NCCC[C@H]1C[C@H](OCc2ccc3ccccc3c2)CN1C(=O)[C@@H](Cc1ccccc1)NC(=O)[C@@H]1CCCCN1`
A: 286 nM

Q: Input `N=C(N)NCCC[C@@H]1C[C@@H](OCc2ccc3ccccc3c2)CN1C(=O)[C@@H](Cc1ccccc1)NC(=O)[C@@H]1Cc2ccccc2CN1`
A: 1470 nM

###

Recorded EC50 for the following molecules
# System tested: UniProt:P41968
# Protocol: Agonist activity at human MC3R transfected in HEK293 cells
API: value field is a number in nM; no unit string.

# count of solved cases: 5
[
  {
    "Smiles representation": "CC(=O)N[C@@H](Cc1ccc(O)cc1)C(=O)N[C@H](Cc1ccccc1)C(=O)N1C[C@H](OCc2ccc3ccccc3c2)C[C@@H]1C(=O)NCCN=C(N)N",
    "EC50 / nM": 1220
  },
  {
    "Smiles representation": "N=C(N)NCCNC(=O)[C@H]1C[C@@H](OCc2ccc3ccccc3c2)CN1C(=O)[C@@H](Cc1ccccc1)NC(=O)[C@@H]1Cc2ccccc2CN1",
    "EC50 / nM": 825
  },
  {
    "Smiles representation": "NC(=O)C[C@H](N)C(=O)N[C@H](Cc1ccccc1)C(=O)N1C[C@@H](OCc2ccc3ccccc3c2)C[C@H]1CCCN=C(N)N",
    "EC50 / nM": 2990
  },
  {
    "Smiles representation": "NC(N)=NCCNC(=O)[C@H]1C[C@@H](OCc2ccc3ccccc3c2)CN1C(=O)[C@@H](Cc1ccccc1)NC(=O)C1CCNCC1",
    "EC50 / nM": 2470
  },
  {
    "Smiles representation": "NC(N)=NCCC[C@H]1C[C@@H](OCc2ccc3ccccc3c2)CN1C(=O)[C@H](N)Cc1ccccc1",
    "EC50 / nM": 871
  }
]

Q: I'd like to know its EC50. The molecule in question is `CC(=O)N[C@@H](CCC(N)=O)C(=O)N[C@H](Cc1ccccc1)C(=O)N1C[C@H](OCc2ccc3ccccc3c2)C[C@@H]1CCCN=C(N)N`
A: 42

Q: Input `N=C(N)NCCC[C@@H]1C[C@H](OCc2ccc3ccccc3c2)CN1C(=O)[C@@H](Cc1ccccc1)NC(=O)[C@@H]1Cc2ccccc2CN1`
A: 3150

###

# System tested: Melanocortin receptor (M1 and M4) (Homo sapiens) (UniProt P32245+Q01726)
# Protocol: Selectivity for human MC4R over human MC1R
# Format: protein assay
Readout label: Selectivity ratio
When you answer, write just the number.

# count of solved cases: 2
[
  {
    "Smiles representation": "CC(=O)N[C@@H](Cc1ccc(O)cc1)C(=O)N[C@H](Cc1ccccc1)C(=O)N1C[C@H](OCc2ccc3ccccc3c2)C[C@@H]1CCCN=C(N)N",
    "System tested": "Melanocortin receptor (M1 and M4) (Homo sapiens) (UniProt P32245+Q01726)",
    "Readout label": "Selectivity ratio",
    "Result number": 4
  },
  {
    "Smiles representation": "CC(=O)N[C@@H](Cc1ccc(O)cc1)C(=O)N[C@H](Cc1ccccc1)C(=O)N1C[C@H](OCc2ccc3ccccc3c2)C[C@@H]1C(=O)NCCN=C(N)N",
    "System tested": "Melanocortin receptor (M1 and M4) (Homo sapiens) (UniProt P32245+Q01726)",
    "Readout label": "Selectivity ratio",
    "Result number": 4
  }
]

Q: I'd like to know its Selectivity ratio. The compound in question is `N=C(N)NCCNC(=O)[C@H]1C[C@@H](OCc2ccc3ccccc3c2)CN1C(=O)[C@@H](Cc1ccccc1)NC(=O)[C@@H]1Cc2ccccc2CN1`
A: 4

###

# System tested: Melanocortin receptor 4 (Homo sapiens)
# Sequence (P32245 whole entry): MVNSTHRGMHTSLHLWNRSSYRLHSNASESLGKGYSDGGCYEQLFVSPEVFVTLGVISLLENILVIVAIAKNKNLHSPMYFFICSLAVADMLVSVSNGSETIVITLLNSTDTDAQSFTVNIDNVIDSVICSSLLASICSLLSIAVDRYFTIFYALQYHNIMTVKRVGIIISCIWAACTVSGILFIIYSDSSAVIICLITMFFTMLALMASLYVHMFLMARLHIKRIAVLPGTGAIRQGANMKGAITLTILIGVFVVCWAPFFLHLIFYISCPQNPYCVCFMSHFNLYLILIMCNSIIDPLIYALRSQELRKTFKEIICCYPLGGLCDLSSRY
# Protocol: Agonist activity at human MC4R transfected in HEK293 cells
Labelling: EC50 reported below 50 nM becomes Condition met; at or above becomes Condition not met.

Worked cases, answers included:
[
  {
    "Smiles representation": "N=C(N)NCCC[C@@H]1C[C@@H](OCc2ccc3ccccc3c2)CN1C(=O)[C@@H](Cc1ccccc1)NC(=O)[C@@H]1CCCCN1",
    "Class": "Condition not met"
  },
  {
    "Smiles representation": "CC(=O)N[C@@H](Cc1cnc[nH]1)C(=O)N[C@H](Cc1ccccc1)C(=O)N1C[C@H](OCc2ccc3ccccc3c2)C[C@@H]1CCCN=C(N)N",
    "Class": "Condition met"
  },
  {
    "Smiles representation": "N=C(N)NCCNC(=O)[C@H]1C[C@@H](OCc2ccc3ccccc3c2)CN1C(=O)[C@@H](Cc1ccccc1)NC(=O)[C@@H]1CCCCN1",
    "Class": "Condition not met"
  }
]

Q: Identify whether the compound `CC(=O)N[C@@H](Cc1ccccc1)C(=O)N[C@H](Cc1ccccc1)C(=O)N1C[C@H](OCc2ccc3ccccc3c2)C[C@@H]1CCCN=C(N)N` records EC50 below 50 nM.
A: Condition met

Q: Input `NC(=O)C[C@H](N)C(=O)N[C@H](Cc1ccccc1)C(=O)N1C[C@@H](OCc2ccc3ccccc3c2)C[C@@H]1CCCN=C(N)N`
A: Condition met

Q: Input `CC(=O)N[C@H](Cc1ccccc1)C(=O)N1C[C@H](OCc2ccc3ccccc3c2)C[C@@H]1CCCN=C(N)N`
A: Condition not met

Q: Input `N=C(N)NCCC[C@H]1C[C@H](OCc2ccc3ccccc3c2)CN1C(=O)[C@@H](Cc1ccccc1)NC(=O)[C@@H]1CCCCN1`
A: Condition not met

###

Recorded EC50 for the following molecules
# System tested: Melanocyte-stimulating hormone receptor (Homo sapiens, UniProt Q01726)
# Sequence (Q01726 whole entry): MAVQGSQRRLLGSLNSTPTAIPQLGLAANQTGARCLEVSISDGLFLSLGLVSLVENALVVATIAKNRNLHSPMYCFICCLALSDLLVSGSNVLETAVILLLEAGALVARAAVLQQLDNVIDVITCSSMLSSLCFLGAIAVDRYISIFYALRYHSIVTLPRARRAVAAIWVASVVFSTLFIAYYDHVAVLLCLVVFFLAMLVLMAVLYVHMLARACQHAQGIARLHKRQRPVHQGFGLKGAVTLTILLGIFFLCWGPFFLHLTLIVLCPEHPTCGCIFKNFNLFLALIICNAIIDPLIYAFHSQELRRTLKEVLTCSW
# Protocol: Agonist activity at human MC1R transfected in HEK293 cells

# count of solved cases: 2
[
  {
    "Smiles representation": "CC(=O)N[C@@H](Cc1ccc(O)cc1)C(=O)N[C@H](Cc1ccccc1)C(=O)N1C[C@@H](OCc2ccc3ccccc3c2)C[C@@H]1CCCN=C(N)N",
    "Result": "71 nM"
  },
  {
    "Smiles representation": "NC(N)=NCCC[C@H]1C[C@@H](OCc2ccc3ccccc3c2)CN1C(=O)[C@@H](Cc1ccccc1)NC(=O)[C@@H]1CCCCN1",
    "Result": "30 nM"
  }
]

Q: Tell me reported EC50 for `NC(=O)C[C@H](N)C(=O)N[C@H](Cc1ccccc1)C(=O)N1C[C@H](OCc2ccc3ccccc3c2)C[C@H]1CCCN=C(N)N` , tested with Melanocyte-stimulating hormone receptor (Homo sapiens, UniProt Q01726).
A: 402 nM
